Test system: MS2 coat protein
ASSAY_PROCEDURE: apparent KD of MS2 coat protein; designed switch direction (-1 OFF switch, 1 ON switch): -1; higher = weaker reporter binding
TEST_SETTINGS: input ligand: none
ENDPOINT_NAME: apparent KD of MS2 coat protein (nM)

SEQUENCE_DATA | EXPERIMENTAL_SYSTEM | OUTPUT_UNIT | QUANTITATIVE_READOUT
AUAAUGUGAGGAUAUCAGUCGUACAGCCUCGGCUGUACGACUGAGAAGGCACAUGAGGAUCACCCAUGUGGUCA [E4/5-A2] (Eterna round: R97, puzzle: Exclusion 4) | MS2 coat protein | nM | 590
ACUUCACAUGAGGAUCACCCAUGUGAGGAUAUCGUCGAGGAUGUAAUGCCAUCCGUGACGAGAAGGCGCAUGGU [Exclusion 1 (Mod 2.1 solution 40 by Eternabot)] (Eterna round: R97, puzzle: Exclusion 1) | MS2 coat protein | nM | 31.1
AGUACUAACACGAAAGUGUUAGUACUAUAAGCUUGUGAUACAUGAGGAUCACCCAUGUCCUCAUAAGCUCGUCUUAU [Mat - Sensor v3 - Turn-off var 2 - D101] (Eterna round: R96, puzzle: Sensor v3, turn-off variant 2) | MS2 coat protein | nM | 21.7

----------
Tested on: MS2 coat protein
ASSAY_PROCEDURE: apparent KD of MS2 coat protein; designed switch direction (-1 OFF switch, 1 ON switch): -1; higher = weaker reporter binding
TEST_SETTINGS: Eterna round: R95; input ligand: FMN 200 uM

SEQUENCE_DATA | EXPERIMENTAL_SYSTEM | apparent KD of MS2 coat protein, nM
CUGGUCCGAGGAUAUAUUAUGUGAUACAUGAGGAUCACCCAUGUUAUAUAAUGGAUGUAAAUAGAAGGCGGACUAG [JL-ex5-3.16] (puzzle: Exclusion 5) | MS2 coat protein | 60.3
GUGGUAGGUUUUUCGAGUAACAUGAGGAUCACCCAUGUAUUAGUUGGAUGUAUCAAGCUUUUUGCUCGACUUAUAAA [JR_SV3TOV1_Sub043] (puzzle: Sensor v3, turn-off variant 1) | MS2 coat protein | 249
CUUCAAUCACCAGAGCUCACACUUAUACCUGCUCUGGUGACAUGAGGAUCACCCAUGUUUUUUGCCCGUCUUAUCUU [Sensor v3, turn-off variant 2 (MOD of Leso v.3)] (puzzle: Sensor v3, turn-off variant 2) | MS2 coat protein | 86.6
CAGAAACAUGAGGAUCACCCAUGUGAGGAUAUGAAAAAGAAAAGAAAAGAAAGAAGAAUCAGAAGGCACAAAGU [salish99-ex1_r3_086] (puzzle: Exclusion 1) | MS2 coat protein | 36.8
AAAGAACAUGAGGAUCACCCAUGUGAGGAUAUGUGAGAAUUGUGGAGAAGAAGAGAGAACAGAAGGCACUGAGG [JR_Exclu1_Sub067] (puzzle: Exclusion 1) | MS2 coat protein | 77
CUGGUCCGAGGAUAUAUUAAGUGAUACAUGAGGAUCACCCAUGUAAUUUAAUGGAAAUAAAUAGAAGGCGGACUAG [Mat - Exclusion 5 - JL mod - D51] (puzzle: Exclusion 5) | MS2 coat protein | 30
CAGUACUACAAGCUAUGGGACAUGAGGAUCACCCAUGUUCGUCUUAUUGAUCUAGGUACGCUGACGUACCUAGAUCU [JL-sv1-2.19 Brourd mod] (puzzle: Sensor v3, turn-off variant 1) | MS2 coat protein | 16.9
AAGUACCGUCACGAUAGUGAUGGUACAGCAAGCAAGUGAACAUGAGGAUCACCCAUGUCCUCAAUUGCUCGUCUUAU [Sensor 3 - 72] (puzzle: Sensor v3, turn-off variant 2) | MS2 coat protein | 25
CACAAGCUUUUUUGUUGCUUUUUAGUUGGUGUAUGAUAAACAUGAGGAUCACCCAUGUAAUAGAUGCUCGAUCUUUU [JR_SV3TOV2_Sub083] (puzzle: Sensor v3, turn-off variant 2) | MS2 coat protein | 24.5
ACGUGAUAUCUGUCGGUGGACAUGAGGAUCACCCAUGUAAGCUUUUUGCUCAUCUUAUAACCCGGUGACAGACCUUC [Zaisbela] (puzzle: Sensor v3, turn-off variant 1) | MS2 coat protein | 26.8
